Attribution: paper PMC10397247

Target: T1, 4H2937-bN
T1 chain: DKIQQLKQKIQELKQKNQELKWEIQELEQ
Experiment: two-hybrid library CCNG1;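 note: natural log of median RNA to DNA barcode read ratio; higher means stronger binding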
measured_metric: interaction score

| binder | interaction score |
| --- | --- |
| DEIQQLEQEIQELEQENQELEWENQELEQ [4H19-bN] | -0.594 |

(a) DKIQQLKQKIQELKQKNQELKWEIQELEQ [4H2937-bN]
(b) DKIQQLKQENQELEQEIQELEWKNQELKQ [4H2696-bN]
(c) DKIQQLKQKIQELKQEIQELEWENQELEQ [4H2883-bN]
Q: Reorder: interaction score, max to min. In your reply, arrange the labels in the requested order.
A: b, a, c
(b: 0.131, a: -0.616, c: -1.33)
